Tested on: LXRa:RXRa (NR concentration 270 nM, RXRa partner concentration 90 nM)
Assay: PBM binding z-score (relative to random genomic background probes); higher = stronger binding; sequences stand for … in GC…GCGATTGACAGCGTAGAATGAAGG
Task for the reader: assign each of the following sequences its reported PBM binding z-score.
Could you respond with only the numeric value?

Lookup: Any idea what PBM binding z-score was measured for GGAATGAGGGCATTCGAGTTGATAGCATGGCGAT ?
Found: 2.3

Lookup: Any idea what PBM binding z-score was measured for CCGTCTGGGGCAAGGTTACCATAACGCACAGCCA ?
Found: 0.595

Lookup: Any idea what PBM binding z-score was measured for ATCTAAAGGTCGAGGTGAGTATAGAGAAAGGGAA ?
Found: 4.45

Lookup: Any idea what PBM binding z-score was measured for ATTACAGGGTCACTAGGCCAGAGTAGGTACGAAT ?
Found: 4.57

Lookup: Any idea what PBM binding z-score was measured for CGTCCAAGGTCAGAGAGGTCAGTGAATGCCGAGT ?
Found: 5.21

Lookup: Any idea what PBM binding z-score was measured for CCTACTGGGGCAAAGGTTACCATACTCAGTACGA ?
Found: 1.84

Lookup: Any idea what PBM binding z-score was measured for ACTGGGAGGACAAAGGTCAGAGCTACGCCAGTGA ?
Found: 4.69

Lookup: Any idea what PBM binding z-score was measured for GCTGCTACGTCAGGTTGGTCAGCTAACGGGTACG ?
Found: -0.646

Lookup: Any idea what PBM binding z-score was measured for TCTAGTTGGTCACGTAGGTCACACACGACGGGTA ?
Found: 1.85

Lookup: Any idea what PBM binding z-score was measured for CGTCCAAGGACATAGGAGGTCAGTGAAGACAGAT ?
Found: 1.47

Lookup: Any idea what PBM binding z-score was measured for CGAACTAGGTCAAGGACAGTTAATCTCCGCACGC ?
Found: 2.36

Lookup: Any idea what PBM binding z-score was measured for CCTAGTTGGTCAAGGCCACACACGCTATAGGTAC ?
Found: 0.312

Lookup: Any idea what PBM binding z-score was measured for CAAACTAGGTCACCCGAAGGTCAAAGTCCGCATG ?
Found: 6.03

Lookup: Any idea what PBM binding z-score was measured for ATATGTAGGTTAGCTGGGGTCATTCATACTAGGC ?
Found: 5.73

Lookup: Any idea what PBM binding z-score was measured for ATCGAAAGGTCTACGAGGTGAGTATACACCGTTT ?
Found: 0.343

Lookup: Any idea what PBM binding z-score was measured for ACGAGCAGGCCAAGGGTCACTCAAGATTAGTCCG ?
Found: 2.98

Lookup: Any idea what PBM binding z-score was measured for AGAATGAGGTTATTAAGGTCAGGGAATTGCGGTC ?
Found: 4.8

Lookup: Any idea what PBM binding z-score was measured for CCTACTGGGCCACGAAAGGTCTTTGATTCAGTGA ?
Found: -0.153

Lookup: Any idea what PBM binding z-score was measured for CCGACTGGGGCAAAGGTTACCATCCTCAGTACGA ?
Found: 1.25

Lookup: Any idea what PBM binding z-score was measured for ATCTGTAGGTAACAAGTTCAGTGAAAGAGAGGAC ?
Found: 0.812

Lookup: Any idea what PBM binding z-score was measured for TCTTGTAGATCAATGGTTAAGAAAGCCGAAGCCT ?
Found: 0.359

###

Tested on: RARa homodimer (NR concentration 270 nM)
Test: PBM binding z-score (relative to random genomic background probes); higher = stronger binding; sequences stand for … in GC…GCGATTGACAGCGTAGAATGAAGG
ASSAY_READOUT: PBM binding z-score
Could you respond with only the numeric value?

Lookup: Any idea what PBM binding z-score was measured for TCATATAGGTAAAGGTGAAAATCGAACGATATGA ?
Found: 0.976

Lookup: Any idea what PBM binding z-score was measured for TCTTGTAAATCAACAGGAGGTTAAGAAAGATCGA ?
Found: 0.881

Lookup: Any idea what PBM binding z-score was measured for TCTGCTAGGTCAACGAAGGTCAGCTAATCTGCTA ?
Found: 0.797

Lookup: Any idea what PBM binding z-score was measured for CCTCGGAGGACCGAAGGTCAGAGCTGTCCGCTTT ?
Found: -0.211

Lookup: Any idea what PBM binding z-score was measured for AGAATGAGGTTAAGATCGGGGAAACAGAATACAT ?
Found: 0.617

Lookup: Any idea what PBM binding z-score was measured for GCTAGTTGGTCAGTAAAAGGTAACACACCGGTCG ?
Found: 0.548

Lookup: Any idea what PBM binding z-score was measured for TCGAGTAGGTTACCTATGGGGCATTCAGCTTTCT ?
Found: -0.643

Lookup: Any idea what PBM binding z-score was measured for ATCTCTAGGTCACCAAGTTCAGTGAATGCCGAAC ?
Found: 2.64

Lookup: Any idea what PBM binding z-score was measured for AGAATGAGGTTAAGCTCAGGGAAACAGAATACAT ?
Found: -0.438

Lookup: Any idea what PBM binding z-score was measured for CCTGCTAGGTCATGGGCAGCTAATCTACAGTATG ?
Found: 0.607

###

Task for the reader: assign each of the following sequences its reported PBM binding z-score.
Tested on: PPARg DBDmut:RXRa IVT, anti-PPARg (DBD mutation: PPARg1 K132A/R137A, NR concentration 270 nM, RXRa partner concentration 90 nM)
Experiment: PBM binding z-score (relative to random genomic background probes); higher = stronger binding; sequences stand for … in GC…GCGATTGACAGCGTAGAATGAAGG
Could you respond with only the numeric value?

Lookup: Any idea what PBM binding z-score was measured for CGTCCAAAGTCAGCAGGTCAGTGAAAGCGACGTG ?
Found: -0.441

Lookup: Any idea what PBM binding z-score was measured for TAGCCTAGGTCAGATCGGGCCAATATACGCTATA ?
Found: -0.296

Lookup: Any idea what PBM binding z-score was measured for GATACAGGGTCAAGGCCAGAGAACGCGTATTGAT ?
Found: 1.58

Lookup: Any idea what PBM binding z-score was measured for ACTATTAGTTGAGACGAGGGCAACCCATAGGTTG ?
Found: 0.5

Lookup: Any idea what PBM binding z-score was measured for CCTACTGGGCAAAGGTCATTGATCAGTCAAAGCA ?
Found: -0.384

###

System: PXR homodimer (NR concentration 270 nM)
Assay: PBM binding z-score (relative to random genomic background probes); higher = stronger binding; sequences stand for … in GC…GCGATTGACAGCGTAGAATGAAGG
ASSAY_READOUT: PBM binding z-score
Could you respond with only the numeric value?

Lookup: Any idea what PBM binding z-score was measured for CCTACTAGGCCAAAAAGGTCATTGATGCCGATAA ?
Found: 5.01

Lookup: Any idea what PBM binding z-score was measured for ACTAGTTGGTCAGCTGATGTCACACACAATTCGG ?
Found: -0.542

Lookup: Any idea what PBM binding z-score was measured for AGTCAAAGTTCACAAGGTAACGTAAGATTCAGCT ?
Found: 2.84

Lookup: Any idea what PBM binding z-score was measured for TTACCAAGGAGAAGGTCGTTGATCCCTCTGTAGA ?
Found: -0.292

Lookup: Any idea what PBM binding z-score was measured for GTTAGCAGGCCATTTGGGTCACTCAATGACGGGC ?
Found: 0.185

Lookup: Any idea what PBM binding z-score was measured for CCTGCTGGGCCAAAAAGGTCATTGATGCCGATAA ?
Found: 3.34

Lookup: Any idea what PBM binding z-score was measured for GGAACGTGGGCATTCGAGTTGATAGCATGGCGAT ?
Found: -0.516

Lookup: Any idea what PBM binding z-score was measured for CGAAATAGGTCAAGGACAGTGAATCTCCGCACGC ?
Found: 0.113

Lookup: Any idea what PBM binding z-score was measured for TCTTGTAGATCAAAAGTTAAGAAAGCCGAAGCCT ?
Found: -0.268

Lookup: Any idea what PBM binding z-score was measured for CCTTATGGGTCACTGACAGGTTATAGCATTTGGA ?
Found: 0.162

Lookup: Any idea what PBM binding z-score was measured for CGTCAGAGTTCAACTAAGGTAACGTAAAGCACGC ?
Found: 6.21

Lookup: Any idea what PBM binding z-score was measured for TCTTGTAGATCAGCAAGTTAAGAAAGCTGGCCAA ?
Found: -0.549

Lookup: Any idea what PBM binding z-score was measured for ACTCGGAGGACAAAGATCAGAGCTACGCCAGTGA ?
Found: -0.433

Lookup: Any idea what PBM binding z-score was measured for ATATGTAAGTTAGCTGGGGTCATTCAGACTAGGC ?
Found: 6.58

Lookup: Any idea what PBM binding z-score was measured for GCAGACAGGTGAAAAGCAGGTAACTCAGGGTGGC ?
Found: -0.329

Lookup: Any idea what PBM binding z-score was measured for ACTATTAGTTGACTGAGGGCAACCGATACGACGC ?
Found: 1.3

Lookup: Any idea what PBM binding z-score was measured for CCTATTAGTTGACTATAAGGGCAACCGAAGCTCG ?
Found: 0.676

Lookup: Any idea what PBM binding z-score was measured for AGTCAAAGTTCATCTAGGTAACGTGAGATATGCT ?
Found: 7.67

Lookup: Any idea what PBM binding z-score was measured for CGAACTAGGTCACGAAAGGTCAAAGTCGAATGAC ?
Found: 3.35

Lookup: Any idea what PBM binding z-score was measured for TGTCAAAGTTCAAAGGTAAGGTAAGTATCCACAC ?
Found: 5.17

Lookup: Any idea what PBM binding z-score was measured for GCATAAAGGTAATACAAGGTGAAAGTCCGATTGT ?
Found: -0.0245

Lookup: Any idea what PBM binding z-score was measured for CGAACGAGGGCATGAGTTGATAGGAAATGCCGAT ?
Found: 0.349

Lookup: Any idea what PBM binding z-score was measured for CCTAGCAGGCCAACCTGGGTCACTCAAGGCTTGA ?
Found: -0.576

Lookup: Any idea what PBM binding z-score was measured for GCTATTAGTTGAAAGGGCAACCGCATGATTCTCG ?
Found: 0.17

Lookup: Any idea what PBM binding z-score was measured for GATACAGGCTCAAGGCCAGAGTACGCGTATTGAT ?
Found: 0.0448

Lookup: Any idea what PBM binding z-score was measured for GCTTGTAGATCAAGGTTAGGAAAGACTAAGCTAA ?
Found: -0.422

Lookup: Any idea what PBM binding z-score was measured for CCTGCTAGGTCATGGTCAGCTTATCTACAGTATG ?
Found: -0.301

Lookup: Any idea what PBM binding z-score was measured for ATCGAAAGGACGTGAGGTGAGTATACAGAAAGGC ?
Found: -0.0869

Lookup: Any idea what PBM binding z-score was measured for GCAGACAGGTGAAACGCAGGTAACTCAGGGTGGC ?
Found: -0.625

Lookup: Any idea what PBM binding z-score was measured for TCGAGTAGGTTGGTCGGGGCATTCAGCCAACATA ?
Found: -0.155

Lookup: Any idea what PBM binding z-score was measured for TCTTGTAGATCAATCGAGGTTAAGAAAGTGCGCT ?
Found: 0.235

Lookup: Any idea what PBM binding z-score was measured for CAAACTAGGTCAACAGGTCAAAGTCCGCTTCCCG ?
Found: 1.23
